Provenance of the data: the RNAGym collection of RNA variant scans (doi:10.1073/pnas.2313332121)

B1: TPR t1 (parent)
chain: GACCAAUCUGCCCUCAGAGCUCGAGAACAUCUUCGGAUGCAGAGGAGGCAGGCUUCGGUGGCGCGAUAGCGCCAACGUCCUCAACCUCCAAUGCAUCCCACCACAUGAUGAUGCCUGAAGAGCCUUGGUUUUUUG

Variants of: B1
Assay: polymerase ribozyme fitness, log enrichment relative to wild type (log ratio); higher = more active; in vitro selection for triplet polymerase activity
If the reported polymerase ribozyme fitness (log ratio) equals or exceeds -3, assign fulfilled. If not, assign not fulfilled.

GACCAAUCUGCCCUCAGAGCUCGAGAACAUCUUCGGAUGCAGAGGAGGCAGGCUUCGGUGGCGCGAUAGCGCCAACGUCCUCAACCUCCAAUGCAUCCCACCACAUGAUCAUGCCUGAAGAGCCUUGGUUCUUUG [G110C U131C]; not fulfilled

Does the reported polymerase ribozyme fitness (log ratio) for GACCAAUCUGCCCUCAUAGCUCGAGAACAUCUUCGGAUGCAGAGGAGGCAGGCUUCGGUGGCGCGAUAGCGCCAACGUCCUCAACCUUCAAUGCAUCCCACCACAUGAUGAUGCCUGAAGAGCCUUGGUUUUUUG [G17U C88U] fall at or above the -3 mark?
fulfilled

Does the reported polymerase ribozyme fitness (log ratio) for GACCAAUCUGCCCUCAGAGCUCGAGAACAUCUUCGGAUGCAGAGGAGGCAGGCUUCGGGGGCGCGAUAGCGCCAACGUCCUCAACCUCCAAUGCAUCCCACCACAUGAUGCUGCCUGAAGAGCCUUGGUUUUUUG [U59G A111C] fall at or above the -3 mark?
fulfilled

Does the reported polymerase ribozyme fitness (log ratio) for GACCAAUCUGCCCUCAGAGCUCGAGAACAUCUUCGGAUGCAGAUGAGGCAGGCUUCGGUGGCGCGAUAGCGCCAACGUCCUCAACCUCCAAUGCAUCCCACCACAUGGUGAUGCCUGAAGAGCCUUGGUUUUUUG [G44U A108G] fall at or above the -3 mark?
fulfilled

Does the reported polymerase ribozyme fitness (log ratio) for GACCAAUCUGCCCUCAGAGCUCGAGAACAUCUUCGGAUGCAGACGAGGCAGGCUUCGGUGGCGCGAUAGCGCCAACGUCCUCAACCUCCAAUGCAUCCCAACACAUGAUGAUGCCUGAAGAGCCUUGGUUUUUUG [G44C C101A] fall at or above the -3 mark?
fulfilled
